- Assayed Target: hSARM1 full length (Homo sapiens)
- Construct: Human recombinant SARM1 full length proteins (wild-type and E642A mutant); made in house
- Test Name: Base exchange reactions at neutral pH (HPLC)
- Assay type: biochemical
- Reported Conditions: hSARM1 full length +VMN 0.05 mM; NADP […]
Recorded measurements of hydrolysis, share of products, one per entry
Express it in %; write the number only.

Consider the reported hydrolysis, share of products for these compounds:
>>> recorded_measurement("O=C(O)c1cccnc1")
98.03
>>> recorded_measurement("O=C(NCc1cccnc1)Nc1ccc([N+](=O)[O-])cc1")
63.94
>>> recorded_measurement("O=C(NCc1ccc[n+]([C@@H]2O[C@H](COP(=O)(O)O)[C@@H](O)[C@H]2O)c1)Nc1ccc([N+](=O)[O-])cc1 [VMN, vacor mononucleotide]")
99.36

I'd like to know its hydrolysis, share of products. The compound in question is CC(=O)c1cccnc1
5.82

----------
Let's look at some molecules and their measured rate.
- Assayed Target: hSARM1 full length (Homo sapiens, UniProt Q6SZW1)
- Construct: Human recombinant SARM1 full length proteins (wild-type and E642A mutant); made in house
- Sequence (Q6SZW1 28-724): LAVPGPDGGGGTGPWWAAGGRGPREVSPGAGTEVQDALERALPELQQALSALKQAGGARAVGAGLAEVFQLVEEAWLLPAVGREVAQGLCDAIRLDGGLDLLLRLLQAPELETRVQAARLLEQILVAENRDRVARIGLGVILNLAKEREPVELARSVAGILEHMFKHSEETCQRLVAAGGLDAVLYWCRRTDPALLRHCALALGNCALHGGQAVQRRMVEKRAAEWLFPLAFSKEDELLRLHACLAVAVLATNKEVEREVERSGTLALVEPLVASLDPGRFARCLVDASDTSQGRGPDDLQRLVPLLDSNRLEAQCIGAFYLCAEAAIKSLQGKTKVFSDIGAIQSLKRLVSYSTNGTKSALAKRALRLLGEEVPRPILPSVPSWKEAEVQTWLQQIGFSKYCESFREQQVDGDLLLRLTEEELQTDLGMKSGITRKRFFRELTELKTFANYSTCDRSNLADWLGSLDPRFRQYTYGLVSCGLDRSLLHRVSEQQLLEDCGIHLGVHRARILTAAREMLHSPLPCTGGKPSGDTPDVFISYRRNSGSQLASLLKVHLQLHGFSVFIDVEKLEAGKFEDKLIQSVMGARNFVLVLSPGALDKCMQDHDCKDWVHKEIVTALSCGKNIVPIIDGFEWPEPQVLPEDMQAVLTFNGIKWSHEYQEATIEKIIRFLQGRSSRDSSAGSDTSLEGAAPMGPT
- Test Name: Base exchange reactions at neutral pH (HPLC)
- Assay type: biochemical
- Reported Conditions: hSARM1 full length +NMN 0.2 mM; NADP […] alone or + free base

>>> recorded_measurement("O=C(O)c1cccnc1")
"131.9 ±10.5 mU/mg"
>>> recorded_measurement("CC(=O)c1cccnc1")
"131.1 ±17.0 mU/mg"
>>> recorded_measurement("NC(=O)c1ccc[n+]([C@@H]2O[C@H](COP(=O)([O-])O)[C@@H](O)[C@H]2O)c1 [NMN, nicotinamide mononucleotide]")
"117.3 ±4.72 mU/mg"

Next, consider the following molecule.
# input molecule: O=C(NCc1cccnc1)Nc1ccc([N+](=O)[O-])cc1 ; wanted: its rate
134.7 ±5.67 mU/mg
